# Assayed system: Bromodomain-containing protein 3 (Homo sapiens) (UniProt Q15059)
# Sequence (Q15059 2-726 limits assumed): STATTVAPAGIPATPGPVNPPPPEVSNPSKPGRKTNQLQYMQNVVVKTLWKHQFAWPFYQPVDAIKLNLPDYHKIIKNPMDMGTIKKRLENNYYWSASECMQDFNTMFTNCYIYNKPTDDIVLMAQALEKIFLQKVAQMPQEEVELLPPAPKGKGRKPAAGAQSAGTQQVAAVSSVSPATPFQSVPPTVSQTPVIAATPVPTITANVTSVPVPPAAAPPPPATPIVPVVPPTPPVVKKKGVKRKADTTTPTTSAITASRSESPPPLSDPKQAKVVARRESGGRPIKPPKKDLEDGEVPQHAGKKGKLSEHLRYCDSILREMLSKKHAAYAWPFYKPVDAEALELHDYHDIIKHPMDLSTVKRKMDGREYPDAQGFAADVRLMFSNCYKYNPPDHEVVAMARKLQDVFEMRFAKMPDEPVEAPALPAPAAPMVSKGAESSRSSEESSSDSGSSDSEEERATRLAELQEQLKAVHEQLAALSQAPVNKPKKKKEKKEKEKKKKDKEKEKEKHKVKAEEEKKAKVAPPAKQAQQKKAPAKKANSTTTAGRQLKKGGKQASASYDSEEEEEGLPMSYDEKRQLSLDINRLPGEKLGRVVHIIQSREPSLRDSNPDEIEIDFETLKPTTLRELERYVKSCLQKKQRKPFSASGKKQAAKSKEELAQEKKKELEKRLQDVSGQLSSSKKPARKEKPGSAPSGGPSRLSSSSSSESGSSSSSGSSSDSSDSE
# Assay procedure: Binding affinity to BRD3-BD2 assessed as change in melting temperature at 10 uM by protein stability shift assay
The source made the active and inactive calls. No cut-off for these calls is given here.

{"Chemical structure": "Cc1nnc2n1-c1ccc(Cl)cc1C(c1ccccc1)=NC2", "Activity": "Active"}
{"Chemical structure": "Cc1ncc2n1-c1ccc(Cl)cc1C(c1ccccc1F)=NC2", "Activity": "Active"}
{"Chemical structure": "Clc1ccc2c(c1)C(c1ccccc1)=NCc1nncn1-2", "Activity": "Active"}
{"Chemical structure": "Cc1nnc2n1-c1ccc(Cl)cc1C(c1ccccc1)=NN2C", "Activity": "Active"}
